- Assay comment: Components of the Cytosolic LPS Sensing Pathway: Gene Identification via Genome-wide siRNA Screen;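 also: robust z of the log signal after scaling to non-targeting control siRNA wells of the plate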
- Assay setup: RAW264.7 macrophages, IL-1a HTRF, actives lie on both sides, screened at 100 nM (by protocol), cells primed 5 h with Pam3CSK4 first
Screen size: about 53,000 sequences; about 3,700 (7%) were called active. The full list was thinned out, with actives kept by preference.

{"Primary sequence": "CCUGUGAAAUACCAGCGUGTT against Rsl24d1", "z-score": 2.05}
{"Primary sequence": "GCCAGGAAACGACAAUAAATT against Slc5a11", "z-score": 0.731}
{"Primary sequence": "GUUGUGCAAUCAACAAGGUTT against Fam98c", "z-score": 2.05}
{"Primary sequence": "GGAAUUGACUUUAAGACAATT against Boll", "z-score": -0.413}
{"Primary sequence": "GGUUCUGAAAGAGUGUUAGTT against Htatsf1", "z-score": -1.58}
